tested_target: α1D-adrenoceptor (aorta) (Rattus norvegicus)
Construct: Aorta, prostate and spleen tissues were isolated from urethane anaesthetized (1.5 gm/kg) male wistar rats; from tissue; host or cells: isolated aorta of male Wistar rats
Sequence (P23944 whole entry): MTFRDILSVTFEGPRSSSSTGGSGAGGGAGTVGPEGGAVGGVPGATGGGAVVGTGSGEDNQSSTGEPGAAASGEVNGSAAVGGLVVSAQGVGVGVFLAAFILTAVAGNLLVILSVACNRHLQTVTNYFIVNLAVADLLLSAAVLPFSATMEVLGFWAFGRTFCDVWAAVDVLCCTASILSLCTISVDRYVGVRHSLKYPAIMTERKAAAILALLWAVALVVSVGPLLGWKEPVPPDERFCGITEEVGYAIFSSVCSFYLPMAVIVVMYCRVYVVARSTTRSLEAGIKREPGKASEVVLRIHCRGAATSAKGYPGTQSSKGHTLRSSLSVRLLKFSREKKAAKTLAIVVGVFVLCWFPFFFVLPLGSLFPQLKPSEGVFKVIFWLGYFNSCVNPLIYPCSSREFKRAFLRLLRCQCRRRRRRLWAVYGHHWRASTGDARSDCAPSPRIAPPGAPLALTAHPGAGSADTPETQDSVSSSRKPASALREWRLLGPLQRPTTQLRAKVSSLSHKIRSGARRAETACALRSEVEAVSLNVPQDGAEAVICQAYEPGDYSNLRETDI
assay_comment: In vitro functional assay, norepinephrine-induced contraction of isolated aorta
Type: cell-based
condition: rat aorta, norepinephrine; read-out: In Vitro Functional Assay (pKB) α1D (converted)
parameter_measured: Kb (nM)
Respond with the bare value in nM.

Asked: Kb lookup needed for `O=C1CCCC(=O)N1CCCN1CCN(c2cccc(C(F)(F)F)c2)CC1` , thanks.
Given back: 126

Asked: Can you handle `Cc1ccc(N2CCN(CCCN3C(=O)CCCC3=O)CC2)cc1C` next?
Given back: 316

Asked: Also check `O=C1CCCC(=O)N1CCCN1CCN(c2cccc(Cl)c2)CC1`
Given back: 25.1

---

tested_target: α1D-adrenoceptor (aorta) (Rattus norvegicus)
Construct: Aorta, prostate and spleen tissues were isolated from urethane anaesthetized (1.5 gm/kg) male wistar rats; from tissue; host or cells: isolated aorta of male Wistar rats
assay_comment: In vitro functional assay, norepinephrine-induced contraction of isolated aorta
Type: cell-based
condition: rat aorta, norepinephrine; read-out: In Vitro Functional Assay (pKB) α1D (converted)
Exercise: for every item that follows, state its recorded Kb.
Supply the numeric figure in nM, leaving out any unit text.

Asked: Would you mind telling me what Kb value was observed for `COc1ccccc1N1CCN(CCCCN2C(=O)CCC2=O)CC1` ?
Given back: 5.01

Asked: Same question for `O=C1CCC(=O)N1CCCN1CCN(c2cccc(C(F)(F)F)c2)CC1` please.
Given back: 10000

Asked: Further, for `COc1ccccc1N1CCN(CCN2C(=O)CCC2=O)CC1` ?
Given back: 126

Asked: Same read-out for `COc1ccccc1N1CCN(CCCN2C(=O)CCC2=O)CC1` ?
Given back: 50.1

Asked: And the next one, `O=C1CCC(=O)N1CCCN1CCN(c2ccccn2)CC1` ?
Given back: 2510

---

Assign Kb to each entry below.
tested_target: α1B-adrenoceptor (spleen) (Rattus norvegicus, UniProt P15823)
Construct: Aorta, prostate and spleen tissues were isolated from urethane anaesthetized (1.5 gm/kg) male wistar rats; from tissue; host or cells: isolated spleen of male Wistar rats
Sequence (P15823 1-515): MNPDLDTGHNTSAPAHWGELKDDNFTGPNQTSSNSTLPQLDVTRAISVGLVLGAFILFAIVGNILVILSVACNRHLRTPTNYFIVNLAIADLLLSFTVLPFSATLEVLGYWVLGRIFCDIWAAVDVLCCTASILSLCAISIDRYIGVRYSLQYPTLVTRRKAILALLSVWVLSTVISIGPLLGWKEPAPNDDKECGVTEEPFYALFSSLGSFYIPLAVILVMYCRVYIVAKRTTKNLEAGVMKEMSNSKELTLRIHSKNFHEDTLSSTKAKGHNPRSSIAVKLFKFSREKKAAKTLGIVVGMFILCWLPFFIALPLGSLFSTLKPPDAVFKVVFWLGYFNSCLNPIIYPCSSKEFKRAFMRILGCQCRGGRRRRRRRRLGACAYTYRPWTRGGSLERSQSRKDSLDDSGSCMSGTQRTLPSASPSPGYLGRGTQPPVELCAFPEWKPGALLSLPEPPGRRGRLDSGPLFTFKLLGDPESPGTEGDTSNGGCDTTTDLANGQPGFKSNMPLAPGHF
assay_comment: In vitro functional assay, phenylephrine-induced contraction of isolated spleen
Format: cell-based
condition: rat spleen, phenylephrine; read-out: In Vitro Functional Assay (pKB) α1B (converted)
Remember to put the unit after the number in your answer.

Asked: Need Kb, item Cc1ccc(N2CCN(CCCN3C(=O)CCCC3=O)CC2)cc1C [Compound 21]
Given back: 200 nM

Asked: Same again, this time with COc1ccccc1N1CCN(CCCN2C(=O)CCC2=O)CC1 [Compound 2]
Given back: 25.1 nM

Asked: O=C1CCC(=O)N1CCCN1CCN(c2ncccn2)CC1 [Compound 6] , same question.
Given back: 5010 nM

Asked: Please do the same for Cc1ccc(N2CCN(CCCN3C(=O)CCC3=O)CC2)cc1C [Compound 7] as well.
Given back: 200 nM

Asked: Same for Cc1ccccc1N1CCN(CCCN2C(=O)CCCC2=O)CC1 [Compound 18]
Given back: 3160 nM
